# Test system: HepG2
# Test Details: cytotoxicity call (relative viability < 0.9)
# Condition Set: 10 µM
About 3,300 (8.5%) of roughly 39,000 compounds were called active. The list comes from a sample in which actives are over-represented; it also holds close analogues and randomly drawn compounds.
Parameter Measured: cytotoxicity call

                               smiles_record  parameter_measured  data_value
 0  C[C@H](CO)N1C[C@H](C)[C@H](CN(C)C(=O)Nc2ccc(C(F)(F)F)cc2)Oc2c(NC(=O)c3ccc(-c4nccs4)cc3)cccc2C1=O   cytotoxicity call    inactive
 1  C[C@@H]1CN([C@@H](C)CO)C(=O)c2cccc(NC(=O)c3ccc(-c4nccs4)cc3)c2O[C@@H]1CN(C)C(=O)Nc1ccc(C(F)(F)F)cc1   cytotoxicity call      active
 2  C[C@@H]1CN([C@H](C)CO)C(=O)c2cccc(NC(=O)c3ccc(-c4nccs4)cc3)c2O[C@@H]1CN(C)Cc1ccc(C(=O)O)cc1   cytotoxicity call    inactive
 3  COc1ccc(S(=O)(=O)N(C)C[C@@H]2Oc3ccc(NS(=O)(=O)c4c(C)noc4C)cc3C(=O)N([C@H](C)CO)C[C@@H]2C)cc1   cytotoxicity call      active
 4  C[C@@H]1CN([C@H](C)CO)C(=O)c2cc(NC(=O)Nc3ccccc3)ccc2O[C@@H](C)CCCCO[C@@H]1CN(C)C(=O)C1CCCCC1   cytotoxicity call    inactive
 5  C[C@@H]1CN([C@H](C)CO)C(=O)c2cccc(NC(=O)c3ccc(-c4nccs4)cc3)c2O[C@@H]1CN(C)Cc1ccc(C(F)(F)F)cc1   cytotoxicity call      active
 6  C[C@H]1CCCCO[C@H](CN(C)C(=O)C2CCCCC2)[C@@H](C)CN([C@@H](C)CO)C(=O)c2cc(NC(=O)Nc3ccccc3)ccc2O1   cytotoxicity call    inactive
 7  C[C@@H]1CN([C@@H](C)CO)C(=O)c2cccc(NC(=O)c3ccc(-c4nccs4)cc3)c2O[C@H]1CN(C)Cc1ccc(C(F)(F)F)cc1   cytotoxicity call    inactive
 8  COc1ccc(S(=O)(=O)N(C)C[C@H]2Oc3ccc(NS(=O)(=O)c4c(C)noc4C)cc3C(=O)N([C@H](C)CO)C[C@H]2C)cc1   cytotoxicity call    inactive
 9  COc1ccc(NC(=O)N(C)C[C@@H]2Oc3ccc(NS(=O)(=O)c4c(C)noc4C)cc3C(=O)N([C@@H](C)CO)C[C@@H]2C)cc1   cytotoxicity call      active
10  C[C@H]1CN([C@@H](C)CO)C(=O)c2cc(NS(=O)(=O)c3cn(C)cn3)ccc2O[C@@H]1CN(C)CC1CCCCC1   cytotoxicity call    inactive
11  COc1ccc(NC(=O)N(C)C[C@@H]2Oc3ccc(NS(=O)(=O)c4c(C)noc4C)cc3C(=O)N([C@@H](C)CO)C[C@H]2C)cc1   cytotoxicity call    inactive
12  C[C@H]1CN([C@@H](C)CO)C(=O)c2cccc(NC(=O)c3ccc(-c4nccs4)cc3)c2O[C@@H]1CN(C)Cc1ccc(C(F)(F)F)cc1   cytotoxicity call      active

* * *

# Test system: HepG2
# Test Details: cytotoxicity call (relative viability < 0.9)
# Condition Set: 10 µM
The campaign covered roughly 39,000 compounds. About 3,300 (8.5%) were called active. The list comes from a sample in which actives are over-represented; it also holds close analogues and randomly drawn compounds.
Classes used: y for active, n for inactive

>>> df
                              smiles_record  tested_system  assigned_class
0  COc1ccc(NC(=O)N(C)C[C@H]2OCCCC[C@H](C)Oc3ccc(NC(=O)Nc4ccccc4)cc3C(=O)N([C@@H](C)CO)C[C@H]2C)cc1          HepG2               n
1  COc1ccc(S(=O)(=O)N(C)C[C@@H]2OCCCC[C@H](C)Oc3ccc(NC(=O)CCC(F)(F)F)cc3C(=O)N([C@@H](C)CO)C[C@H]2C)cc1          HepG2               n
2  Cc1noc(C)c1S(=O)(=O)Nc1ccc2c(c1)C(=O)N([C@H](C)CO)C[C@H](C)[C@@H](CN(C)S(=O)(=O)c1cn(C)cn1)OCCCC[C@H](C)O2          HepG2               n
3  COc1ccc(CN(C)C[C@H]2OCCCC[C@@H](C)Oc3ccc(NS(=O)(=O)c4ccc(OC)cc4)cc3C(=O)N([C@H](C)CO)C[C@@H]2C)cc1          HepG2               n
4  C[C@@H]1CCCCO[C@H](CN(C)Cc2ccc(C(F)(F)F)cc2)[C@H](C)CN([C@@H](C)CO)C(=O)c2cc(NS(=O)(=O)c3ccc(Cl)cc3)ccc2O1          HepG2               y
5  C[C@@H]1CCCCO[C@@H](CN(C)S(C)(=O)=O)[C@H](C)CN([C@@H](C)CO)C(=O)c2cc(NS(=O)(=O)c3ccc(F)cc3)ccc2O1          HepG2               n

* * *

# System: HepG2
# Test Details: cytotoxicity call (relative viability < 0.9)
# Condition Set: 10 µM
Hit rate of the full screen: of about 39,000 compounds, about 3,300 (8.5%) were called active. The entries come from a sample that favours actives as a whole.
Possible outcomes: active, inactive

                              smiles_record  assigned_class
0  COc1ccc(CN(C)C[C@H]2Oc3ccc(NC(=O)Nc4ccc(C(F)(F)F)cc4)cc3CC(=O)N([C@@H](C)CO)C[C@@H]2C)cc1          active
1  COc1ccc(CN(C)C[C@H]2Oc3ccc(NC(=O)Nc4ccc(C(F)(F)F)cc4)cc3CC(=O)N([C@@H](C)CO)C[C@H]2C)cc1          active
2  COc1ccc(NC(=O)Nc2ccc3c(c2)CC(=O)N([C@@H](C)CO)C[C@H](C)[C@@H](CN(C)Cc2ccc(C(F)(F)F)cc2)O3)cc1        inactive
3  COc1ccc(NC(=O)Nc2ccc3c(c2)CC(=O)N([C@H](C)CO)C[C@@H](C)[C@H](CN(C)Cc2ccc(C(F)(F)F)cc2)O3)cc1        inactive

* * *

# Test system: HepG2
# Test Details: cytotoxicity call (relative viability < 0.9)
# Condition Set: 10 µM
About 3,300 (8.5%) of roughly 39,000 compounds were called active. The sample as a whole holds a higher share of actives than the screen did.
Parameter Measured: cytotoxicity call

>>> df
                              smiles_record  data_value
0  C[C@H](CO)N1C[C@H](C)[C@H](CN(C)S(=O)(=O)c2ccc(C#N)cc2)Oc2ncc(C#CC(C)(C)O)cc2C1=O    inactive
1  COc1ccc(S(=O)(=O)N(C)C[C@@H]2Oc3ccc(NC(=O)NC(C)C)cc3CC(=O)N([C@H](C)CO)C[C@H]2C)cc1    inactive
2  C[C@@H]1CN([C@@H](C)CO)C(=O)c2cccc(NC(=O)c3ccncc3)c2O[C@H]1CN(C)S(=O)(=O)c1cn(C)cn1      active
3  COc1ccc(S(=O)(=O)N(C)C[C@H]2Oc3c(NC(=O)c4ccncc4)cccc3C(=O)N([C@H](C)CO)C[C@H]2C)cc1    inactive
4  C[C@H](CO)N1C[C@H](C)[C@H](CN(C)S(=O)(=O)c2ccccc2)Oc2c(NC(=O)c3ccncc3)cccc2C1=O    inactive
5  C[C@@H]1CN([C@@H](C)CO)C(=O)c2cccc(NC(=O)c3ccncc3)c2O[C@@H]1CN(C)S(=O)(=O)c1ccccc1      active
6  C[C@@H]1CN([C@H](C)CO)C(=O)c2cccc(NC(=O)c3ccncc3)c2O[C@@H]1CN(C)S(=O)(=O)c1ccccc1    inactive

* * *

# System: HepG2
# Test Details: cytotoxicity call (relative viability < 0.9)
# Condition Set: 10 µM
Hit rate of the full screen: of about 39,000 compounds, about 3,300 (8.5%) were called active. Only a selection was taken, and actives are over-represented in it overall.
Classes used: t (active), f (inactive)

In [3]: df
Out[3]:
                                   molecule  tested_system  assigned_class
0        C[Si](C)(C)O[Si](C)(C)O[Si](C)(C)C          HepG2               f
1              CC(=O)O[C@@H](C)C[N+](C)(C)C          HepG2               f
2  CC(=O)[C@@]12C=CCC[C@@H]1C[C@@H](C(=O)Nc1c(C)cccc1Cl)N2C(=O)c1nc(C)oc1C(F)(F)F          HepG2               f
3  C[C@@H]1CN([C@@H](C)CO)C(=O)c2cccc(NC(=O)Nc3ccc4c(c3)OCO4)c2O[C@@H]1CN(C)Cc1ccc(Cl)c(Cl)c1          HepG2               f
4  C[C@@H]1CCCCO[C@@H](CN(C)S(=O)(=O)c2ccccc2)[C@H](C)CN([C@H](C)CO)C(=O)c2cc(NC(=O)CCC(F)(F)F)ccc2O1          HepG2               f
5  CC(C)NCC(O)c1ccc(O)c(O)c1.Cl (stereo not drawn)          HepG2               t
6  C[C@@H]1CN([C@H](C)CO)C(=O)Cc2cc(NC(=O)Cn3cnnn3)ccc2O[C@@H]1CN(C)C(=O)Nc1ccc(F)cc1          HepG2               f
7  C[C@@H]1CN([C@@H](C)CO)C(=O)c2cc(NC(=O)c3ccncc3)ccc2O[C@@H]1CN(C)Cc1ccncc1          HepG2               f
